Test system: HOP-62 NSCLC
assay_name: NCI tumour cell line growth inhibition, 48 h; in the data active means GI50 below about 0.43 µM; inactive means the rest
Form entry, call: pick from T (active), F (inactive)

molecule: CC1CN1C1=CC(=O)c2c(c(CO)cn2C)C1=O (stereo not drawn)
group_label: T

Asked: Dear colleague, could you share the recorded outcome for Cc1ccc(-c2cc(C(=O)N3N=C(c4ccc(N)cc4)CC3c3ccc(Cl)cc3)c3ccccc3n2)cc1 (stereo not drawn) when you have a moment?
Given back: F

###

Tested on: HS 578T breast
assay_name: NCI tumour cell line growth inhibition, 48 h; in the data active = GI50 below about 0.43 µM; inactive = the rest
Please answer using one outcome listed in 1 = active, -1 = inactive

Field: example entries. Status: answers known.
smiles_text: COc1cccc(/C=N/Nc2ncnc3c2cnn3-c2cccc(OC)c2)c1
group_label: -1
//
smiles_text: Cc1cc(Nc2cccc(F)c2)nc(NCc2ccccc2)n1
group_label: -1
//
smiles_text: FC(F)(F)c1cccc(Nc2nc3ccccc3nc2Nc2cccc(C(F)(F)F)c2)c1
group_label: -1
//
smiles_text: O=C(O)CCCn1c(SCc2c(Cl)cccc2Cl)nc2ccsc2c1=O
group_label: -1
//
smiles_text: O=C(C[Si](CC(=O)c1cccc(C(F)(F)F)c1)CC(=O)c1cccc(C(F)(F)F)c1)c1cccc(C(F)(F)F)c1
group_label: -1
//
smiles_text: Cn1cc(C2=C(c3cn(CCSC(=N)N)c4ccccc34)C(=O)NC2=O)c2ccccc21
group_label: -1
//
smiles_text: CC(=O)OC[C@]1(C)C=C2C(=O)[C@](C)(O)C3(CC3)C(C)=C2[C@H]1OC(=O)N(C)CCN(C)C(=O)OC(C)(C)C
group_label: -1

Asked: Lab log entry: `COC(=O)[C@@H](C[C@H](Cc1ccccc1)NC(=O)c1csc([C@@H](C[C@H](C(C)C)N(C)C(=O)[C@@H](NC(=O)[C@H]2CCCCN2C)C(C)C)OC(C)=O)n1)NC(=O)OCc1ccccc1` — outcome as called in the assay?
Given back: 1
